Test system: Candida albicans SNY425 biofilm
Assay: biofilm OD600 with compound plus antifungal (OD600 (absorbance)); higher = more biofilm remaining
Settings: assay detail: disruption of 24-h mature biofilm (compound + antifungal for a second 24 h)
Measurement Type: biofilm OD600

Compound: NCC1CCC(C(=O)N[C@@H](Cc2ccccc2)C(=O)Nc2ccc(CC(=O)O)cc2)CC1 (stereo partly drawn) + OC(Cn1cncn1)(Cn1cncn1)c1ccc(F)cc1F [fluconazole] (first compound 12.5 µM)
Measurement Type: biofilm OD600
Result: 0.251
//
Compound: CC(NC(=O)C(Cc1ccccc1)NC(=O)OCc1ccccc1)C(=O)CF (stereo not drawn) + CC[C@H](C)C[C@H](C)CCCCCCCCC(=O)N[C@H]1C[C@@H](O)[C@@H](NCCN)NC(=O)[C@@H]2[C@@H](O)CCN2C(=O)[C@H]([C@H](O)CCN)NC(=O)[C@H]([C@H](O)[C@@H](O)c2ccc(O)cc2)NC(=O)[C@@H]2C[C@@H](O)CN2C(=O)[C@H]([C@@H](C)O)NC1=O [caspofungin] (first compound 12.5 µM)
Measurement Type: biofilm OD600
Result: 0.3
//
Compound: N[C@H](C(=O)O)[C@@H]1CC(Cl)=NO1 [Acivicin] + CC[C@H](C)C[C@H](C)CCCCCCCCC(=O)N[C@H]1C[C@@H](O)[C@@H](NCCN)NC(=O)[C@@H]2[C@@H](O)CCN2C(=O)[C@H]([C@H](O)CCN)NC(=O)[C@H]([C@H](O)[C@@H](O)c2ccc(O)cc2)NC(=O)[C@@H]2C[C@@H](O)CN2C(=O)[C@H]([C@@H](C)O)NC1=O [caspofungin] (first compound 4 µM)
Measurement Type: biofilm OD600
Result: 0.296

----------
Listing of entries alongside the reported biofilm OD600.
System: Candida albicans SNY425 biofilm
Assay: biofilm OD600 with compound plus antifungal (OD600 (absorbance)); higher = more biofilm remaining
Conditions: assay detail: sustained inhibition (compound + antifungal during 90-min adherence and 24-h growth)
Measurement Type: biofilm OD600

Molecule: O=C1Nc2ccc([N+](=O)[O-])cc2C1=O [5-Nitroisatin] + CC[C@H](C)C[C@H](C)CCCCCCCCC(=O)N[C@H]1C[C@@H](O)[C@@H](NCCN)NC(=O)[C@@H]2[C@@H](O)CCN2C(=O)[C@H]([C@H](O)CCN)NC(=O)[C@H]([C@H](O)[C@@H](O)c2ccc(O)cc2)NC(=O)[C@@H]2C[C@@H](O)CN2C(=O)[C@H]([C@@H](C)O)NC1=O [caspofungin] (first compound 12.5 µM)
Target Under Test: Candida albicans SNY425 biofilm
Measurement Type: biofilm OD600
Readout Number: 0.156
--
Molecule: NCCCC[C@H](N[C@@H](CCc1ccccc1)C(=O)O)C(=O)N1CCC[C@H]1C(=O)O [Lisinopril] + CC[C@H](C)C[C@H](C)CCCCCCCCC(=O)N[C@H]1C[C@@H](O)[C@@H](NCCN)NC(=O)[C@@H]2[C@@H](O)CCN2C(=O)[C@H]([C@H](O)CCN)NC(=O)[C@H]([C@H](O)[C@@H](O)c2ccc(O)cc2)NC(=O)[C@@H]2C[C@@H](O)CN2C(=O)[C@H]([C@@H](C)O)NC1=O [caspofungin] (first compound 12.5 µM)
Target Under Test: Candida albicans SNY425 biofilm
Measurement Type: biofilm OD600
Readout Number: 0.178
--
Molecule: CC(C)CCNC(=O)[C@H](CC(C)C)NC(=O)[C@H]1O[C@@H]1C(=O)O + OC(Cn1cncn1)(Cn1cncn1)c1ccc(F)cc1F [fluconazole] (first compound 12.5 µM)
Target Under Test: Candida albicans SNY425 biofilm
Measurement Type: biofilm OD600
Readout Number: 0.143

----------
Test system: Candida albicans SNY425 biofilm
Experiment: biofilm OD600 with compound plus antifungal (OD600 (absorbance)); higher = more biofilm remaining
Conditions: assay detail: disruption of 24-h mature biofilm (compound + antifungal for a second 24 h)
Measurement Type: biofilm OD600

Compound: CSCCC(C=O)NC(=O)C(CC(C)C)NC(=O)[C@H](CC(C)C)NC(C)=O (stereo partly drawn) [Calpain Inhibitor II (ALLM)] + OC(Cn1cncn1)(Cn1cncn1)c1ccc(F)cc1F [fluconazole] (first compound 12.5 µM)
Measurement Type: biofilm OD600
Readout Number: 0.239
//
Compound: CCN1C(=O)C=CC1=O [N-Ethylmaleimide] + CC[C@H](C)C[C@H](C)CCCCCCCCC(=O)N[C@H]1C[C@@H](O)[C@@H](NCCN)NC(=O)[C@@H]2[C@@H](O)CCN2C(=O)[C@H]([C@H](O)CCN)NC(=O)[C@H]([C@H](O)[C@@H](O)c2ccc(O)cc2)NC(=O)[C@@H]2C[C@@H](O)CN2C(=O)[C@H]([C@@H](C)O)NC1=O [caspofungin] (first compound 4 µM)
Measurement Type: biofilm OD600
Readout Number: 0.281
//
Compound: Cc1cccc(C)c1OCC(=O)N[C@@H](Cc1ccccc1)[C@@H](O)C[C@H](Cc1ccccc1)NC(=O)[C@H](C(C)C)N1CCCNC1=O [lopinavir] + CC[C@H](C)C[C@H](C)CCCCCCCCC(=O)N[C@H]1C[C@@H](O)[C@@H](NCCN)NC(=O)[C@@H]2[C@@H](O)CCN2C(=O)[C@H]([C@H](O)CCN)NC(=O)[C@H]([C@H](O)[C@@H](O)c2ccc(O)cc2)NC(=O)[C@@H]2C[C@@H](O)CN2C(=O)[C@H]([C@@H](C)O)NC1=O [caspofungin] (first compound 12.5 µM)
Measurement Type: biofilm OD600
Readout Number: 0.153
//
Compound: CC(C)CN(C[C@@H](O)[C@H](Cc1ccccc1)NC(=O)O[C@H]1CCOC1)S(=O)(=O)c1ccc(N)cc1 [amprenavir] + CC[C@H](C)C[C@H](C)CCCCCCCCC(=O)N[C@H]1C[C@@H](O)[C@@H](NCCN)NC(=O)[C@@H]2[C@@H](O)CCN2C(=O)[C@H]([C@H](O)CCN)NC(=O)[C@H]([C@H](O)[C@@H](O)c2ccc(O)cc2)NC(=O)[C@@H]2C[C@@H](O)CN2C(=O)[C@H]([C@@H](C)O)NC1=O [caspofungin] (first compound 12.5 µM)
Measurement Type: biofilm OD600
Readout Number: 0.271
//
Compound: CNC(=O)[C@H](Cc1c[nH]c2ccccc12)NC(=O)[C@@H](CC(=O)NO)CC(C)C + C[C@@H]1[C@H](O)[C@@H](C)/C=C/C=C/C=C/C=C/C=C/C=C/C=C/[C@H](O[C@@H]2O[C@H](C)[C@@H](O)[C@H](N)[C@@H]2O)C[C@@H]2O[C@](O)(C[C@@H](O)C[C@@H](O)[C@H](O)CC[C@@H](O)C[C@@H](O)CC(=O)O[C@H]1C)C[C@H](O)[C@H]2C(=O)O [amphotericin B] (first compound 12.5 µM)
Measurement Type: biofilm OD600
Readout Number: 0.281
//
Compound: O=C[C@@H]1CCCN1C(=O)[C@@H]1CCCN1C(=O)OCc1ccccc1 [Z-Prolyl-prolinal] + CC[C@H](C)C[C@H](C)CCCCCCCCC(=O)N[C@H]1C[C@@H](O)[C@@H](NCCN)NC(=O)[C@@H]2[C@@H](O)CCN2C(=O)[C@H]([C@H](O)CCN)NC(=O)[C@H]([C@H](O)[C@@H](O)c2ccc(O)cc2)NC(=O)[C@@H]2C[C@@H](O)CN2C(=O)[C@H]([C@@H](C)O)NC1=O [caspofungin] (first compound 12.5 µM)
Measurement Type: biofilm OD600
Readout Number: 0.261
//
Compound: CC1CNc2c(cccc2S(=O)(=O)N[C@@H](CCCNC(=N)N)C(=O)N2CC[C@@H](C)C[C@@H]2C(=O)O)C1 (stereo partly drawn) [Argatroban] + CC[C@H](C)C[C@H](C)CCCCCCCCC(=O)N[C@H]1C[C@@H](O)[C@@H](NCCN)NC(=O)[C@@H]2[C@@H](O)CCN2C(=O)[C@H]([C@H](O)CCN)NC(=O)[C@H]([C@H](O)[C@@H](O)c2ccc(O)cc2)NC(=O)[C@@H]2C[C@@H](O)CN2C(=O)[C@H]([C@@H](C)O)NC1=O [caspofungin] (first compound 12.5 µM)
Measurement Type: biofilm OD600
Readout Number: 0.285
//
Compound: C[C@H](NC(=O)[C@@H]1CCCN1C(=O)[C@@H]1CCCN1C(=O)[C@@H](O)[C@H](N)Cc1ccccc1)C(N)=O [Apstatin] + CC[C@H](C)C[C@H](C)CCCCCCCCC(=O)N[C@H]1C[C@@H](O)[C@@H](NCCN)NC(=O)[C@@H]2[C@@H](O)CCN2C(=O)[C@H]([C@H](O)CCN)NC(=O)[C@H]([C@H](O)[C@@H](O)c2ccc(O)cc2)NC(=O)[C@@H]2C[C@@H](O)CN2C(=O)[C@H]([C@@H](C)O)NC1=O [caspofungin] (first compound 12.5 µM)
Measurement Type: biofilm OD600
Readout Number: 0.292
